The reported measurements were obtained from ChEMBL document CHEMBL4725300.

Species: Rattus norvegicus
PROTOCOL_TEXT: Negative allosteric modulation of GABAB receptor in Sprague-Dawley rat brain cortex membrane assessed as decrease in [35S]GTPgammaS binding at 2.5 uM incubated for 30 mins relative to control
Format: cell membranes
Design: scale not given: the % may be the effect or the level left
DETAILS: Cerebral cortex, filed as negative allosteric modulator

COMPOUND_SMILES	Activity / %
CSc1ncc(-c2nnc(C)o2)c(NC2CCCC2)n1	25.3
Cn1c(Sc2ccccc2)nc(-c2ccccc2)cc1=O	4.7
CC(C)c1c(O)nc(-c2ccccc2)n(Cc2ccccc2)c1=O	2.3
Cn1c(Sc2ccc(Cl)cc2)nc(-c2ccccc2)cc1=O	12.2
CC(C)Cn1c(=O)c(C(C)C)c(O)c2cc(C(C)(C)C)ccc21	23
Cn1c(Sc2ccc(Cl)cc2)nc(-c2ccc(C(C)(C)C)cc2)cc1=O	4
CCCn1c(=O)c(C)c(O)c2cc(OC)ccc21	5
O=c1cc(-c2ccccc2)nc(Sc2ccc(Cl)cc2)[nH]1	8.7
CSc1ncc(-c2nc(C)no2)c(NC2CCCC2)n1	19
CCOC(=O)c1cnc(-n2nc(C)cc2C)nc1NC1CCCC1	18.3
CC(C)c1c(O)c2cc(C(C)(C)C)ccc2n(CC(C)(C)C)c1=O	2
O=c1cc(O)nc(-c2ccccc2)n1Cc1ccccc1	2.4
O=c1cc(-c2ccccc2)nc(Sc2ccccc2)[nH]1	3.3
CC(C)c1ccc2c(c1)c(O)c(C(C)C)c(=O)n2CC(C)(C)C	3.2
Cc1c(O)c2cc(C(C)(C)C)ccc2n(CC(C)C)c1=O	13.5
Cc1c(O)nc(-c2ccccc2)n(Cc2ccccc2)c1=O	3.3
CCCCCn1c(=O)c(C(C)C)c(O)c2cc(C(C)C)ccc21	9
CCOC(=O)c1cnc(SC)nc1NC1CCCC1	25
CC(C)Cn1c(=O)c(C(C)C)c(O)c2cc(C(C)C)ccc21	8.7
